The reported numbers originate from patent US12312301B2.

Test system: Pseudomonas aeruginosa biofilm formation
Test: Minimum Biofilm Inhibition Concentration (MBIC) assay, crystal violet biofilm mass
Type: cell-based
Details: IC50 relative to ajoene run in the same experiment; <100% = more effective than ajoene
Reported Property: P. aeruginosa MBIC: % of Ajoene positive control IC50

Molecule | Result
COc1ccc(CSS/C=C/CS(=O)(=O)Cc2ccc(C(F)(F)F)cc2)cc1 | 27.8 % of Ajoene

Briefly, P. aeruginosa MBIC: % of Ajoene positive control IC50 measured for COc1ccc(CSSC=CCS(=O)(=O)Cc2ccccc2)cc1 : 56 % of Ajoene

Lab note: COc1ccc(CSSC=CCS(=O)(=O)Cc2ccc(C(F)(F)F)cc2)cc1 gave P. aeruginosa MBIC: % of Ajoene positive control IC50 of 79 % of Ajoene

Lab note: C=CCSS/C=C/CS(=O)(=O)Cc1ccc(C(F)(F)F)cc1 gave P. aeruginosa MBIC: % of Ajoene positive control IC50 of 78.7 % of Ajoene

For C=CCSSC=CCS(=O)(=O)Cc1ccc(C(F)(F)F)cc1 [drawing 51] the molecule record lists P. aeruginosa MBIC: % of Ajoene positive control IC50 as 42.75 % of Ajoene

Sure, the documented P. aeruginosa MBIC: % of Ajoene positive control IC50 for COC(=O)c1ccc(CSS/C=C/CS(=O)(=O)Cc2ccc(C(F)(F)F)cc2)cc1 is 34.7 % of Ajoene

Per the record, C=CCSSC=CCS(=O)(=O)Cc1cccs1 has P. aeruginosa MBIC: % of Ajoene positive control IC50 of 29.7 % of Ajoene

For COc1cccc(CSSC=CCS(=O)(=O)Cc2ccc(C(F)(F)F)cc2)c1 the molecule record lists P. aeruginosa MBIC: % of Ajoene positive control IC50 as 65.3 % of Ajoene

Lab note: O=S(=O)(CC=CSSCC1CC1)CC1CC1 gave P. aeruginosa MBIC: % of Ajoene positive control IC50 of 57.5 % of Ajoene

Query C=CCSSC=CCS(=O)(=O)Cc1ccc(S(C)(=O)=O)cc1 yields P. aeruginosa MBIC: % of Ajoene positive control IC50 of 82 % of Ajoene

Entry C=CCSSC=CCS(=O)(=O)Cc1ccco1 , P. aeruginosa MBIC: % of Ajoene positive control IC50 reported as 11.7 % of Ajoene
